In this section, each of the molecules is paired with its reported inhibition at 20 pM.
- TARGET DESC: angiotensin converting enzyme (Oryctolagus cuniculus)
- Construct: Rabbit lung acetone powder was extracted with 10 volumes of 50 mM sodium borate buffer; from tissue; host or cells: rabbit lung (acetone powder, borate buffer extract, 40,000 x g supernatant)
- EXPERIMENT SUMMARY: Inhibitory activity of angiotensin converting enzyme (rabbit lung acetone powder extract, HHL substrate, modified Cushman method)
- Format: biochemical
- CONDITIONS USED: inhibitor concentration 2 × 10^-5 μM; preincubated 30 minutes, reacted with HHL at 37° C. for 30 minutes
METRIC NAME: inhibition at 20 pM (%)

{"MOLECULE": "CCCCCCCCCCCCCCCCCCSCC(COP(=O)(O)SC[C@@H](C)C(=O)N1CCC[C@H]1C(=O)O)OC(=O)CCCCCCCCCCCCCCC (mixture of isomers) [Compound 6]", "METRIC NAME": "inhibition at 20 pM", "EXPERIMENTAL RESULT": 70}
{"MOLECULE": "CCCCCCCCCCCCCCCCCCOCC(COP(=O)(O)SC[C@@H](C)C(=O)N1CCC[C@H]1C(=O)OCc1ccc([N+](=O)[O-])cc1)OC(C)=O (mixture of isomers) [Compound 3]", "METRIC NAME": "inhibition at 20 pM", "EXPERIMENTAL RESULT": 60}
{"MOLECULE": "CCCCCCCCCCCCCCCCCCSCC(COP(=O)(O)SC[C@@H](C)C(=O)N1CCC[C@H]1C(=O)OCc1ccc([N+](=O)[O-])cc1)OC(C)=O (mixture of isomers) [Compound 7]", "METRIC NAME": "inhibition at 20 pM", "EXPERIMENTAL RESULT": 43}
{"MOLECULE": "CCCCCCCCCCCCCCCCCCOCC(COP(=O)(O)SC[C@@H](C)C(=O)N1CCC[C@H]1C(=O)O)OC(=O)CCCCCCCCCCCCCCC (mixture of isomers) [Compound 2]", "METRIC NAME": "inhibition at 20 pM", "EXPERIMENTAL RESULT": 80}
{"MOLECULE": "CCCCCCCCCCCCCCCCCCOCC(COP(=O)(O)SC[C@@H](C)C(=O)N1CCC[C@H]1C(=O)OCc1ccc([N+](=O)[O-])cc1)OC(=O)CCCCCCCCCCCCCCC (mixture of isomers) [Compound 1]", "METRIC NAME": "inhibition at 20 pM", "EXPERIMENTAL RESULT": 39}
{"MOLECULE": "CCCCCCCCCCCCCCCCCCSCC(COP(=O)(O)SC[C@@H](C)C(=O)N1CCC[C@H]1C(=O)OCc1ccc([N+](=O)[O-])cc1)OC(=O)CCCCCCCCCCCCCCC (mixture of isomers) [Compound 5]", "METRIC NAME": "inhibition at 20 pM", "EXPERIMENTAL RESULT": 4}
{"MOLECULE": "CCCCCCCCCCCCCCCCCCOCC(COP(=O)(O)SC[C@@H](C)C(=O)N1CCC[C@H]1C(=O)O)OC(C)=O (mixture of isomers) [Compound 4]", "METRIC NAME": "inhibition at 20 pM", "EXPERIMENTAL RESULT": 98}
{"MOLECULE": "CCCCCCCCCCCCCCCCCCSCC(COP(=O)(O)SC[C@@H](C)C(=O)N1CCC[C@H]1C(=O)O)OC(C)=O (mixture of isomers) [Compound 8]", "METRIC NAME": "inhibition at 20 pM", "EXPERIMENTAL RESULT": 80}

---

- TARGET DESC: angiotensin converting enzyme (Oryctolagus cuniculus)
- Construct: Rabbit lung acetone powder was extracted with 10 volumes of 50 mM sodium borate buffer; from tissue; host or cells: rabbit lung (acetone powder, borate buffer extract, 40,000 x g supernatant)
- Sequence (P12822 34-1310): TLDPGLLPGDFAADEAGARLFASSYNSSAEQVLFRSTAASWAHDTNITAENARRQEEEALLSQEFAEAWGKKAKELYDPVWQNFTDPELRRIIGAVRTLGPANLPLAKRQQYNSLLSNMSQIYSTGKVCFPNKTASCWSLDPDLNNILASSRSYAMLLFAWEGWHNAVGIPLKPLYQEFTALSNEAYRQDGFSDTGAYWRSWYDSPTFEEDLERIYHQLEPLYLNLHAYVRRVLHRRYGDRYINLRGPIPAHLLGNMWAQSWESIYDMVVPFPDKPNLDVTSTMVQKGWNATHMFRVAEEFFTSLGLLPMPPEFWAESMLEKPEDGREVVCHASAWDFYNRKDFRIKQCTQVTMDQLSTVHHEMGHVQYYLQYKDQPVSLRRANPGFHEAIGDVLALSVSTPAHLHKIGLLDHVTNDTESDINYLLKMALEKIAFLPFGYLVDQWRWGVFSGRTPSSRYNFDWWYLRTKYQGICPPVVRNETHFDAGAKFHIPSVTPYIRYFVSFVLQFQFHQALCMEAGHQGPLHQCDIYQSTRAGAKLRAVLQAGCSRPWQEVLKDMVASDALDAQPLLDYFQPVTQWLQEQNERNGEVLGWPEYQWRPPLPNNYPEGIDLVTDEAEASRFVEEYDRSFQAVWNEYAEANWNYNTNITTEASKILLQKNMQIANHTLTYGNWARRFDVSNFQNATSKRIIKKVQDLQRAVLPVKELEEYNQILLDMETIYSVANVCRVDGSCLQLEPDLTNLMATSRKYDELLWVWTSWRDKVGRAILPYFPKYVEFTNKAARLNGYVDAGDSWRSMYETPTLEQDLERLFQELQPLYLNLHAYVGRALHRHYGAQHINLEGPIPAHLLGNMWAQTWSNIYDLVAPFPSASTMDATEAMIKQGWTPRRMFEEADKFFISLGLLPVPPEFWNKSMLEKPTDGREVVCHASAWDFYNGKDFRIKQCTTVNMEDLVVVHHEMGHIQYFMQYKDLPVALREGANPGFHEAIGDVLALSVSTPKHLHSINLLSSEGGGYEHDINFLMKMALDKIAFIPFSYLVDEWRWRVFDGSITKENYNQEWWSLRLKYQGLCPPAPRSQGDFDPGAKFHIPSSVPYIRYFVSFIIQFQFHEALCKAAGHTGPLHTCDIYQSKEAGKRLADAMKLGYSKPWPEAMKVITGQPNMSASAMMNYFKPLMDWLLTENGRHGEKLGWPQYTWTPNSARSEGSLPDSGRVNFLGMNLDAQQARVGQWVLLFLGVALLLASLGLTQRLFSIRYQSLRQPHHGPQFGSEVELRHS
- EXPERIMENT SUMMARY: Inhibitory activity of angiotensin converting enzyme (rabbit lung acetone powder extract, HHL substrate, modified Cushman method)
- Assay type: biochemical
- CONDITIONS USED: inhibitor concentration 2 × 10^-4 μM; preincubated 30 minutes, reacted with HHL at 37° C. for 30 minutes

{"COMPOUND": "CCCCCCCCCCCCCCCCCCOCC(COP(=O)(O)SC[C@@H](C)C(=O)N1CCC[C@H]1C(=O)O)OC(=O)CCCCCCCCCCCCCCC (mixture of isomers)", "UNIT SYMBOL": "%", "inhibition at 0.0002 µM": 97}
{"COMPOUND": "CCCCCCCCCCCCCCCCCCOCC(COP(=O)(O)SC[C@@H](C)C(=O)N1CCC[C@H]1C(=O)OCc1ccc([N+](=O)[O-])cc1)OC(C)=O (mixture of isomers)", "UNIT SYMBOL": "%", "inhibition at 0.0002 µM": 85}
{"COMPOUND": "CCCCCCCCCCCCCCCCCCSCC(COP(=O)(O)SC[C@@H](C)C(=O)N1CCC[C@H]1C(=O)O)OC(=O)CCCCCCCCCCCCCCC (mixture of isomers)", "UNIT SYMBOL": "%", "inhibition at 0.0002 µM": 92}

---

- TARGET DESC: angiotensin converting enzyme (Oryctolagus cuniculus)
- Construct: Rabbit lung acetone powder was extracted with 10 volumes of 50 mM sodium borate buffer; from tissue; host or cells: rabbit lung (acetone powder, borate buffer extract, 40,000 x g supernatant)
- EXPERIMENT SUMMARY: Inhibitory activity of angiotensin converting enzyme (rabbit lung acetone powder extract, HHL substrate, modified Cushman method)
- Assay type: biochemical
- CONDITIONS USED: inhibitor concentration 2 × 10^-4 μM; preincubated 30 minutes, reacted with HHL at 37° C. for 30 minutes
METRIC NAME: inhibition at 0.0002 µM (%)

{"MOLECULE": "CCCCCCCCCCCCCCCCCCOCC(COP(=O)(O)SC[C@@H](C)C(=O)N1CCC[C@H]1C(=O)OCc1ccc([N+](=O)[O-])cc1)OC(=O)CCCCCCCCCCCCCCC (mixture of isomers) [Compound 1]", "METRIC NAME": "inhibition at 0.0002 µM", "UNIT SYMBOL": "%", "EXPERIMENTAL RESULT": 77}
{"MOLECULE": "CCCCCCCCCCCCCCCCCCOCC(COP(=O)(O)SC[C@@H](C)C(=O)N1CCC[C@H]1C(=O)O)OC(C)=O (mixture of isomers) [Compound 4]", "METRIC NAME": "inhibition at 0.0002 µM", "UNIT SYMBOL": "%", "EXPERIMENTAL RESULT": 98}
{"MOLECULE": "CCCCCCCCCCCCCCCCCCSCC(COP(=O)(O)SC[C@@H](C)C(=O)N1CCC[C@H]1C(=O)OCc1ccc([N+](=O)[O-])cc1)OC(=O)CCCCCCCCCCCCCCC (mixture of isomers) [Compound 5]", "METRIC NAME": "inhibition at 0.0002 µM", "UNIT SYMBOL": "%", "EXPERIMENTAL RESULT": 31}
{"MOLECULE": "CCCCCCCCCCCCCCCCCCSCC(COP(=O)(O)SC[C@@H](C)C(=O)N1CCC[C@H]1C(=O)OCc1ccc([N+](=O)[O-])cc1)OC(C)=O (mixture of isomers) [Compound 7]", "METRIC NAME": "inhibition at 0.0002 µM", "UNIT SYMBOL": "%", "EXPERIMENTAL RESULT": 78}
{"MOLECULE": "CCCCCCCCCCCCCCCCCCSCC(COP(=O)(O)SC[C@@H](C)C(=O)N1CCC[C@H]1C(=O)O)OC(C)=O (mixture of isomers) [Compound 8]", "METRIC NAME": "inhibition at 0.0002 µM", "UNIT SYMBOL": "%", "EXPERIMENTAL RESULT": 90}
